# Assay details: Solubility of OCA:CD complexes in physiologically relevant media
# Assay type: physicochemical
# Condition context: water, pH 7, water, thermodynamic from solid; 37°C; complex corresponding to 20 mg obeticholic acid in 2 mL; 60 min; read-out: Solubility, Water (pH 7), 60 min
# Description: Obeticholic acid (OCA) or OCA: Cyclodextrin (CD) complex was weighed into a glass vial, followed by addition of 1 or 2 ml solvent (water, 0.01 N HCl, phosphate buffer pH 6.8 and FaSSIF). […] After 15 min and 1 h, samples were withdrawn, filtered through a 0.2 µm disposable filter, 100 µl of the clear filtrate were diluted with 900 µl acetonitrile (ACN):Water (1:1) and 1 µl thereof were analyzed by UHPLC/UV. […]
Readout name: solubility at 60 min

Using the record for `CC[C@H]1[C@@H](O)[C@@H]2[C@H](CC[C@]3(C)[C@@H]([C@H](C)CCC(=O)O)CC[C@@H]23)[C@@]2(C)CC[C@@H](O)C[C@@H]12` , state its measured solubility at 60 min. < 10 µg/mL

====

# Assay details: Solubility of OCA:CD complexes in physiologically relevant media
# Assay type: physicochemical
# Condition context: 0.01 N HCl, pH 2.2, simulated gastric fluid, thermodynamic from solid; 37°C; complex corresponding to 20 mg obeticholic acid in 2 mL; 15 min; read-out: Solubility, 0.01 N HCl (pH 2.2), 15 min
Readout name: solubility at 15 min

Using the record for CC[C@H]1[C@@H](O)[C@@H]2[C@H](CC[C@]3(C)[C@@H]([C@H](C)CCC(=O)O)CC[C@@H]23)[C@@]2(C)CC[C@@H](O)C[C@@H]12 [OCA, 6α-ethyl-chenodeoxycholic acid] , state its measured solubility at 15 min. < 10 µg/mL

====

# Assay details: Solubility of OCA:CD complexes in physiologically relevant media
# Format: physicochemical
# Condition context: 50 mM KH2PO4 phosphate buffer, pH 6.5, aqueous buffer, thermodynamic from solid; 37°C; complex corresponding to 20 mg obeticholic acid in 2 mL; 60 min; read-out: Solubility, 50 mM KH2PO4 (pH 6.5), 60 min
Readout name: solubility at 60 min

Using the record for `CC[C@H]1[C@@H](O)[C@@H]2[C@H](CC[C@]3(C)[C@@H]([C@H](C)CCC(=O)O)CC[C@@H]23)[C@@]2(C)CC[C@@H](O)C[C@@H]12` , state its measured solubility at 60 min. 110 µg/mL

====

# Assay details: Solubility of OCA:CD complexes in physiologically relevant media
# Type: physicochemical
# Condition context: 50 mM KH2PO4 phosphate buffer, pH 6.5, aqueous buffer, thermodynamic from solid; 37°C; complex corresponding to 20 mg obeticholic acid in 2 mL; 15 min; read-out: Solubility, 50 mM KH2PO4 (pH 6.5), 15 min
Readout name: solubility at 15 min (µg/mL)
Give bare numbers, in µg/mL.

Using the record for CC[C@H]1[C@@H](O)[C@@H]2[C@H](CC[C@]3(C)[C@@H]([C@H](C)CCC(=O)O)CC[C@@H]23)[C@@]2(C)CC[C@@H](O)C[C@@H]12 [OCA, 6α-ethyl-chenodeoxycholic acid] , state its measured solubility at 15 min. 110

====

# Assay details: Solubility of OCA:CD complexes in physiologically relevant media
# Type: physicochemical
# Condition context: FaSSIF, pH 6.5, fassif, thermodynamic from solid; Fasted State Simulated Intestinal Fluid; 37°C; complex corresponding to 20 mg obeticholic acid in 2 mL; 60 min; read-out: Solubility, FassiF* (pH 6.5), 60 min
Readout name: solubility at 60 min (mg/mL)
One number for each entry, in mg/mL.

Using the record for `CC[C@H]1[C@@H](O)[C@@H]2[C@H](CC[C@]3(C)[C@@H]([C@H](C)CCC(=O)O)CC[C@@H]23)[C@@]2(C)CC[C@@H](O)C[C@@H]12` , state its measured solubility at 60 min. 0.42

src = patent EP3228306A1
